target: Gonadotropin-releasing hormone receptor (Homo sapiens) (UniProt P30968); assay: Human gonadotropin-releasing hormone receptor (GnRHR) small molecule agonists, calcium flux assay in GnRHR-HEK293 cells (AID 1920063); conditions: calcium flux fluorescence, agonist mode; series mostly up to 57.6 µM; note: nearly all actives have a fitted effect of over 35% in size; for activity change: % is set by controls: 0 for no effect and ±100 for the full control effect
Sequence (P30968 whole entry, looked up): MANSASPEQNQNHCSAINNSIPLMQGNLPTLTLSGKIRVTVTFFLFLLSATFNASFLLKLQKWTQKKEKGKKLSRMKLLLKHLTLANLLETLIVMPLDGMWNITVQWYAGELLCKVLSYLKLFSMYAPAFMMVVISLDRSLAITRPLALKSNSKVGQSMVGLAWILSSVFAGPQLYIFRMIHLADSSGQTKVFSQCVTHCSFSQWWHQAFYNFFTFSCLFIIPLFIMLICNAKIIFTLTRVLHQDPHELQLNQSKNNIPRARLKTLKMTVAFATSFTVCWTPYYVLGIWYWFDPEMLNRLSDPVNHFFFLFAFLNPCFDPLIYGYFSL
The source made the active and inactive calls. Calls come from the whole dose curve.
REPORTED METRIC: activity change

Known activity change results, listed for orientation:
CCOC(=O)c1ccc(C)cc1 : inactive
Cc1cccc(Cl)c1 : inactive
CCN1CCC[C@H]1CNC(=O)c1c(O)c(Cl)cc(Cl)c1OC : inactive
O=C(O)c1cc(=O)c2c(OCC(O)COc3cccc4oc(C(=O)O)cc(=O)c34)cccc2o1 : inactive
O=Cc1ccc(C(=O)O)cc1 : inactive
CCCC[O][Al]([O]CCCC)[O]CCCC : inactive
CC(C)(C)c1n[nH]c(=O)n(N)c1=O : inactive
Cc1ncc(CSSCc2cnc(C)c(O)c2CO)c(CO)c1O : inactive
C[Si](C)O[Si](C)(C)O[Si](C)(C)O[Si](C)C : inactive
O=C(O)CNC(=O)c1ccc(CO)o1 : inactive

State its activity change: Cc1cccc(C)c1NC(=O)CN1CCCCCC1
inactive

State its activity change: CCN(CC)CCNC(=O)c1ccc(NC(C)=O)cc1
inactive

State its activity change: O=S(O)CO
inactive

State its activity change: COC(=O)c1cc(Cl)ccc1NS(=O)(=O)C(F)(F)F
inactive

State its activity change: CCCCCCCCCCCCCCCCCC(=O)OCC(CC)CCCC (stereo unspecified)
inactive

---

Assay: G protein-coupled receptor (GPCR) small molecule agonists, calcium flux assay: HEK293 wild type cell line counter screen (AID 1920065); note: % is set by controls: 0 for no effect and ±100 for the full control effect
Details: HEK293 WT calcium flux, fluorescence, agonist mode; series mostly up to 57.6 µM
Excerpt: U.S. Tox21 Program National Center for Advancing Translational Sciences [NCATS] Division of Preclinical Innovation [DPI] U.S. Environmental Protection Agency [EPA] National Institutes of Environmental Health Sciences [NIEHS] National Toxicology Program [NTP] U.S. Food and Drug Administration [FDA] […] Fluorescence intensity can be utilized to determine the activation of the compound in a calcium flux assay. […]
The source made the active and inactive calls. Calls come from the whole dose curve.
REPORTED METRIC: activation

Nc1c(NC/C=C\COc2cc(CN3CCCCC3)ccn2)c(=O)c1=O : 0.206% [at 11.8 µM] (inactive)
CC1(C)Oc2ccc(C#N)cc2[C@@H](N2CCCC2=O)[C@@H]1O : inactive
CCOc1ccccc1C(N)=O : inactive
CC(CO)c1ccccc1 (stereo not given) : inactive
Nc1ccccc1N : inactive

State its activation: O=S(=O)(O)c1ccccc1O
inactive

State its activation: CCC(C)(Oc1ccc(C2(c3ccc(OC(C)(CC)C(=O)O)cc3)CCCCC2)cc1)C(=O)O (stereo not given)
inactive

State its activation: C[C@@H]1CC(=O)NN=C1c1ccc(NN=C(C#N)C#N)cc1
inactive

State its activation: CCc1ccc(C=O)cc1
inactive

State its activation: Cc1c(I)c(=O)n(-c2ccccc2)n1C
inactive

---

assay: p53 small molecule agonists, cell-based qHTS assay with rat liver microsomes (AID 1963578); details: HCT-116 p53RE-bla, beta-lactamase ratio, 16 h; series mostly up to 66 µM; note: % is set by controls: 0 for no effect and ±100 for the full control effect
Results filed as inconclusive are left out. Calls of active or inactive are those of the source. The call rests on the fitted dose curve.
REPORTED METRIC: activation

Known activation results, listed for orientation:
O=C(O)Cc1ccc(CCNS(=O)(=O)c2ccc(Cl)cc2)cc1 : inactive
O=S(=O)(O)c1ccccc1O : inactive
Cn1ccnc1 : inactive
Cc1ccc2n[nH]nc2c1 : inactive

State its activation: O=Cc1ccc(F)cc1
inactive

State its activation: COC(=O)Nc1nc2ccc(Sc3ccccc3)cc2[nH]1
inactive

State its activation: O=C1NC(c2ccccc2)(c2ccccc2)C(=O)N1COP(=O)(O)O
inactive

State its activation: CSc1nnc(C(C)(C)C)c(=O)[nH]1
inactive

---

experiment: p53 small molecule agonists, cell-based qHTS assay with human liver microsomes: qHTS cell viability counter screen (AID 1963579); conditions: p53RE-bla HCT-116 viability, ATP luminescence, 16 h, HLM; series mostly up to 66 µM; note: % is set by controls: 0 for no effect and ±100 for the full control effect; nearly all actives have a fitted effect of over 45% in size
Inconclusive results are not listed. Active and inactive are the calls of the source. Calls come from the whole dose curve.
REPORTED METRIC: activity change, negative = cytotoxicity

Clc1ccc2c(c1)C(N1CCNCC1)=Nc1ccccc1O2 : inactive
FC(F)(F)C(Cl)(Cl)Cl : inactive
O=C1CCC(=O)N1 : inactive
O=C(Oc1ccccc1)c1ccc(O)cc1 : inactive
Cc1ccc(C(C)c2ccc(C)c(C)c2)cc1C : inactive

State its activity change, negative = cytotoxicity: CC[N+](C)(C)c1cccc(O)c1
inactive

State its activity change, negative = cytotoxicity: CC(=O)N[C@H]1[C@H]([C@H](O)[C@H](O)CO)OC(C(=O)O)=C[C@@H]1N=C(N)N
inactive

State its activity change, negative = cytotoxicity: CC1CNCC(C)O1 (centres undefined)
inactive

State its activity change, negative = cytotoxicity: CC(O)CCCCn1c(=O)c2c(ncn2C)n(C)c1=O (centres undefined)
inactive

State its activity change, negative = cytotoxicity: O=C(O)c1ccc(C(=O)O)c(C(=O)O)c1
inactive

State its activity change, negative = cytotoxicity: C[Si](C)=O
7.59% [at 5.99 µM] (inactive)

---

target: Gonadotropin-releasing hormone receptor (Homo sapiens) (UniProt P30968); assay: Human gonadotropin-releasing hormone receptor (GnRHR) small molecule agonists, calcium flux assay in GnRHR-HEK293 cells (AID 1920063); conditions: calcium flux fluorescence, agonist mode; series mostly up to 57.6 µM; note: nearly all actives have a fitted effect of over 35% in size; for activity change: % is set by controls: 0 for no effect and ±100 for the full control effect
The source made the active and inactive calls. Calls follow the shape of the full dose curve.
REPORTED METRIC: activity change

Known activity change results, listed for orientation:
FC(F)(F)c1ccccc1Cl : inactive
COc1cc(/C=C/C(N)=O)cc(OC)c1OC : inactive
CCN(CC)c1ccc2c(C)cc(=O)oc2c1 : inactive
COc1cc(C(=O)N2CCOCC2)cc(OC)c1OC : inactive
CC(C)(C)NC(=O)[C@@H]1CN(Cc2cccnc2)CCN1C[C@@H](O)C[C@@H](Cc1ccccc1)C(=O)N[C@H]1c2ccccc2C[C@H]1O : inactive
CC(C)CCCC(C)N (stereo not drawn) : inactive
CC(C)(C)c1cc(Cc2cc(C(C)(C)C)c(O)c(C(C)(C)C)c2)cc(C(C)(C)C)c1O : inactive
O=C1NCCN1CCO : inactive
O=c1cc(CO)occ1O : inactive
Cc1ccccc1OCC(O)CO (stereo not drawn) : inactive

State its activity change: Cc1cn([C@H]2C[C@H](F)[C@@H](CO)O2)c(=O)[nH]c1=O
inactive

State its activity change: C=C(C)[C@@H]1CC[C@@H](C)C[C@@H]1O
inactive

State its activity change: COC(=O)c1cc(S(N)(=O)=O)ccc1OC
inactive

---

assay: p53 small molecule agonists, cell-based qHTS assay with human liver microsomes: qHTS cell viability counter screen (AID 1963579); conditions: p53RE-bla HCT-116 viability, ATP luminescence, 16 h, HLM; series mostly up to 66 µM; note: % is set by controls: 0 for no effect and ±100 for the full control effect; nearly all actives have a fitted effect of over 45% in size
Results filed as inconclusive are left out. Activity calls are given as the source filed them. Calls come from the whole dose curve.
REPORTED METRIC: activity change, negative = cytotoxicity

Known activity change, negative = cytotoxicity results, listed for orientation:
Cn1cnc2c(F)c(Nc3ccc(Br)cc3Cl)c(C(=O)NOCCO)cc21 : inactive
O=C1Nc2ccccc2C1(c1ccc(O)cc1)c1ccc(O)cc1 : inactive
O=C(/C=C/c1ccccc1)OCc1ccccc1 : inactive
CCC(C)c1ccccc1 (stereo unspecified) : inactive
C=C(C)[C@@H]1CC[C@@H](C)C[C@@H]1O : inactive

Please turn your attention to the following entry.
State its activity change, negative = cytotoxicity: CCC(=O)O[C@H]1[C@H](O[C@@H]2[C@@H](C)[C@H](O[C@H]3C[C@@](C)(OC)[C@@H](O)[C@H](C)O3)[C@@H](C)C(=O)O[C@H](CC)[C@@](C)(O)[C@H](O)[C@@H](C)C(=O)[C@H](C)C[C@@]2(C)O)O[C@H](C)C[C@@H]1N(C)C
inactive

---

target: Gonadotropin-releasing hormone receptor (Homo sapiens) (UniProt P30968); assay: Human gonadotropin-releasing hormone receptor (GnRHR) small molecule agonists, calcium flux assay in GnRHR-HEK293 cells (AID 1920063); conditions: calcium flux fluorescence, agonist mode; series mostly up to 57.6 µM; note: nearly all actives have a fitted effect of over 35% in size; note: potency is the fitted concentration of half-maximal effect
Activity calls are given as the source filed them. Calls come from the whole dose curve.
REPORTED METRIC: Potency

COc1cccc2c1C(=O)c1c(O)c3c(c(O)c1C2=O)C[C@@](O)(C(C)=O)C[C@@H]3O[C@H]1C[C@H](N)[C@H](O)[C@H](C)O1 : 34.9 µM (active)
Nc1ccccc1N : 35.5 µM (active)
NC[C@H](O)c1ccc(O)c(O)c1 : 19 µM (active)
CC(C)(C)NCC(O)c1ccc(O)c(CO)c1 (stereo not given) : 0.0301 µM (active)

Please turn your attention to the following entry.
State its Potency: CCCCCCCCCCCCCCCC[N+](C)(C)CC
13.8 µM (active)
